- assay.target: Bromodomain-containing protein 2 (Homo sapiens)
- procedure.summary: Inhibition of BRD2-BD1 (unknown origin) incubated for 6 hrs by HTRF method
property.label: pIC50
Convention used: pIC50 is expressed as -log10 of the molar concentration.

Enquiry: Give its pIC50 value. Item: CC(=O)N1CCc2c(sc3nc(SCC(=O)Nc4cccnc4C)n(Cc4ccco4)c(=O)c23)C1
Return: 5.33

----------
- System: CCRF-CEM
- procedure.summary: Cytotoxicity against human CCRF-CEM cells assessed as reduction in cell viability incubated for 72 hrs
- Format: functional, cell-based
pEC50: −log10 of the molar value.
property.label: pEC50

Solved entries (count: 2):
Enquiry: Give its pEC50 value. Item: COc1cc(OC)c2c(=O)[nH]c(-c3cc(C)c(OCCO)c(C)c3)nc2c1
Return: < 5.30

Enquiry: Give its pEC50 value. Item: CC(=O)Nc1c(F)cc(C(=O)N[C@H]2CC[C@H](O)CC2)cc1O[C@@H](C)c1ccccc1
Return: < 5.30

Others:
Enquiry: Give its pEC50 value. Item: CC(=O)N1CCc2c(sc3nc(SCC(=O)Nc4cccnc4C)n(Cc4ccco4)c(=O)c23)C1
Return: < 5.30

----------
- assay.target: Bromodomain-containing protein 2 (Homo sapiens)
- procedure.summary: Binding affinity to human partial length BRD2-BD2 (E348 to D455) expressed in bacterial system assessed as dissociation constant by BROMOscan method
property.label: IC50 (nM)
Enter your answer as a number in nM; do not include the unit.

Enquiry: Give its IC50 value. Item: CC(=O)N1CCc2c(sc3nc(SCC(=O)Nc4cc(Cl)ccc4C)n(Cc4ccco4)c(=O)c23)C1
Return: 2600

----------
- assay.target: Bromodomain-containing protein 3 (Homo sapiens)
- Sequence (Q15059 whole entry, the tested form may be a part): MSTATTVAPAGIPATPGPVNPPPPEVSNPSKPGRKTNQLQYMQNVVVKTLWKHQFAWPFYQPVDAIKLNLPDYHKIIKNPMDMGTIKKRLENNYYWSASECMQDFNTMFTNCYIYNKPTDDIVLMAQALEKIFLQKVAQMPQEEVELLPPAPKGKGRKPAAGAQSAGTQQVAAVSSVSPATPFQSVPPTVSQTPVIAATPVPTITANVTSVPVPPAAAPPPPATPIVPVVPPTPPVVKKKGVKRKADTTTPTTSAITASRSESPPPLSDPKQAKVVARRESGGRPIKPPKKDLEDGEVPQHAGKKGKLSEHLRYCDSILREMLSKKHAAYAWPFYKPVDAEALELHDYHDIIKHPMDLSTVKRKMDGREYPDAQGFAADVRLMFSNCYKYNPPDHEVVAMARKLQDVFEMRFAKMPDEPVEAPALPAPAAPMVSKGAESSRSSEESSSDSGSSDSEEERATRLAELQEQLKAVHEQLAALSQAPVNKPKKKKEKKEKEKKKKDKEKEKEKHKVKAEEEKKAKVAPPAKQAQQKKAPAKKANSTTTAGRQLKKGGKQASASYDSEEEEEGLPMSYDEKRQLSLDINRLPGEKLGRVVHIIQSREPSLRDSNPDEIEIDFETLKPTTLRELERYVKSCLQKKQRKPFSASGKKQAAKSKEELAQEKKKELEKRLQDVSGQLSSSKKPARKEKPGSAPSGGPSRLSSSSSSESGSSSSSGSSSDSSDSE
- procedure.summary: Binding affinity to human partial length BRD3-BD2 (G306 to P416) expressed in bacterial system assessed as dissociation constant by BROMOscan method
property.label: IC50 (nM)
Enter your answer as a number in nM; do not include the unit.

Enquiry: Give its IC50 value. Item: CC(=O)N1CCc2c(sc3nc(SCC(=O)Nc4cc(Cl)ccc4C)n(Cc4ccco4)c(=O)c23)C1
Return: 325

----------
- assay.target: Bromodomain-containing protein 3 (Homo sapiens)
- procedure.summary: Inhibition of BRD3-BD1 domain (unknown origin) incubated for 6 hrs by HTRF method
property.label: IC50 (µM)
Enter your answer as a number in µM; do not include the unit.

Enquiry: Give its IC50 value. Item: CC(=O)c1ccc(NC(=O)CSc2nc3sc4c(c3c(=O)n2Cc2ccco2)CCN(C(C)=O)C4)cc1
Return: 1.5

Enquiry: Give its IC50 value. Item: CC(=O)N1CCc2c(sc3nc(SCC(=O)Nc4cc(Cl)ccc4C)n(Cc4ccco4)c(=O)c23)C1
Return: 8.5

Enquiry: Give its IC50 value. Item: CC(=O)N1CCc2c(sc3nc(SCC(=O)Nc4ccc(F)cc4F)n(Cc4ccco4)c(=O)c23)C1
Return: 3.5

Enquiry: Give its IC50 value. Item: CC(=O)N1CCc2c(sc3nc(SCC(=O)Nc4ccccc4C)n(Cc4ccco4)c(=O)c23)C1
Return: 3

Enquiry: Give its IC50 value. Item: CC(=O)N1CCc2c(sc3nc(SCC(=O)Nc4cccc(Cl)c4)n(Cc4ccco4)c(=O)c23)C1
Return: 3.1

Enquiry: Give its IC50 value. Item: CC(=O)N1CCc2c(sc3nc(SCC(=O)Nc4cc(Cl)ccc4C)n(-c4ccc(C)o4)c(=O)c23)C1
Return: 7.8

Others:
Enquiry: Give its IC50 value. Item: CC(=O)N1CCc2c(sc3nc(SCC(=O)Nc4ccc(F)cc4)n(Cc4ccco4)c(=O)c23)C1
Return: 3.6

----------
- assay.target: Bromodomain-containing protein 2 (Homo sapiens, UniProt P25440)
- Sequence (P25440 whole entry): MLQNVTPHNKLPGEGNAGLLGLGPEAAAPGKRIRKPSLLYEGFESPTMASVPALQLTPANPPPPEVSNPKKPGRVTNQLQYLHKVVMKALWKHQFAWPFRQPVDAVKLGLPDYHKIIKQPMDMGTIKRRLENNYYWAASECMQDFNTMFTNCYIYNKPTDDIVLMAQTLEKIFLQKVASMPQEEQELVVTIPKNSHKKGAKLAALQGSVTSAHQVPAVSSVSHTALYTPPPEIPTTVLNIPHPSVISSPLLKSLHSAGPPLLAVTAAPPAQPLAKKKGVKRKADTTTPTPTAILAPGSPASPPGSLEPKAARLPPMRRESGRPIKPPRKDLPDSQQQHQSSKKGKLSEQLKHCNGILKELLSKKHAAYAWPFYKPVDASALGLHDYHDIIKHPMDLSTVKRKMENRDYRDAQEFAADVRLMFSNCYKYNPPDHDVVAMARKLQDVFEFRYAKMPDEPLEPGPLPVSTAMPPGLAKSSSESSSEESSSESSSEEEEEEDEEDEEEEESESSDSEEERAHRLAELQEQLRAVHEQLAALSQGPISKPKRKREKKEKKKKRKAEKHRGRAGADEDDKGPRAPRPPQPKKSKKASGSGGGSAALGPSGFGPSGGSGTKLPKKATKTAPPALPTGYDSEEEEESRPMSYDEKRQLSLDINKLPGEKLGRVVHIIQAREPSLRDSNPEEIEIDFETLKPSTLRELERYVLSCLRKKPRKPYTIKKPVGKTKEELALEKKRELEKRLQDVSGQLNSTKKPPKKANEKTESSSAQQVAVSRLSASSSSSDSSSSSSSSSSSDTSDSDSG
- procedure.summary: Inhibition of BRD2-BD2 (unknown origin) incubated for 6 hrs by HTRF method
# reported IC50; entries follow
Enter your answer as a number in µM; do not include the unit.

Enquiry: Give its IC50 value. Item: CC(=O)N1CCc2c(sc3nc(SCC(=O)Nc4cc(Cl)ccc4C)n(Cc4ccco4)c(=O)c23)C1
Return: 0.12

Attention now shifts to the item below.
Enquiry: Give its IC50 value. Item: CC(=O)N1CCc2c(sc3nc(SCC(=O)Nc4cccnc4C)n(Cc4ccco4)c(=O)c23)C1
Return: 0.071

----------
- Species: Homo sapiens
- procedure.summary: Selectivity ratio of IC50 for BRD3-BD1 (unknown origin) to IC50 for BRD3-BD2 (unknown origin)
Given measured Ratio IC50, output met if it is greater than or equal to 20 and not met if not.

Enquiry: Hello, I need to know if CC(=O)N1CCc2c(sc3nc(SCC(=O)Nc4ccc(Cl)cc4)n(Cc4ccco4)c(=O)c23)C1 has measured Ratio IC50 not below 20. Thanks!
Return: not met

Enquiry: Hello, I need to know if CC(=O)c1cccc(NC(=O)CSc2nc3sc4c(c3c(=O)n2Cc2ccco2)CCN(C(C)=O)C4)c1 has measured Ratio IC50 not below 20. Thanks!
Return: not met

Enquiry: Hello, I need to know if CC(=O)N1CCc2c(sc3nc(SCC(=O)Nc4ccc(F)c(Cl)c4)n(Cc4ccco4)c(=O)c23)C1 has measured Ratio IC50 not below 20. Thanks!
Return: not met

Enquiry: Hello, I need to know if CC(=O)N1CCc2c(sc3nc(SCC(=O)Nc4cc(F)ccc4F)n(Cc4ccco4)c(=O)c23)C1 has measured Ratio IC50 not below 20. Thanks!
Return: met

Enquiry: Hello, I need to know if CC(=O)N1CCc2c(sc3nc(SCC(=O)Nc4ccccc4Cl)n(Cc4ccco4)c(=O)c23)C1 has measured Ratio IC50 not below 20. Thanks!
Return: met

Enquiry: Hello, I need to know if CC(=O)N1CCc2c(sc3nc(SCC(=O)Nc4ccc(C)c(F)c4)n(Cc4ccco4)c(=O)c23)C1 has measured Ratio IC50 not below 20. Thanks!
Return: met

Others:
Enquiry: Hello, I need to know if CC(=O)N1CCc2c(sc3nc(SCC(=O)Nc4ccccc4C)n(Cc4ccco4)c(=O)c23)C1 has measured Ratio IC50 not below 20. Thanks!
Return: not met

Enquiry: Hello, I need to know if CSc1cccc(NC(=O)CSc2nc3sc4c(c3c(=O)n2Cc2ccco2)CCN(C(C)=O)C4)c1 has measured Ratio IC50 not below 20. Thanks!
Return: not met

Enquiry: Hello, I need to know if CC(=O)N1CCc2c(sc3nc(SCC(=O)Nc4ccc(F)c(F)c4)n(Cc4ccco4)c(=O)c23)C1 has measured Ratio IC50 not below 20. Thanks!
Return: not met

Reference for the values: ChEMBL document CHEMBL5046315
